# target_under_test: murine GRPRs (Mus musculus, UniProt P21729)
# Construct: from tissue; host or cells: organs of male NMRI mice, in vivo (pancreas, stomach, small intestine and others)
# Sequence (P21729 whole entry): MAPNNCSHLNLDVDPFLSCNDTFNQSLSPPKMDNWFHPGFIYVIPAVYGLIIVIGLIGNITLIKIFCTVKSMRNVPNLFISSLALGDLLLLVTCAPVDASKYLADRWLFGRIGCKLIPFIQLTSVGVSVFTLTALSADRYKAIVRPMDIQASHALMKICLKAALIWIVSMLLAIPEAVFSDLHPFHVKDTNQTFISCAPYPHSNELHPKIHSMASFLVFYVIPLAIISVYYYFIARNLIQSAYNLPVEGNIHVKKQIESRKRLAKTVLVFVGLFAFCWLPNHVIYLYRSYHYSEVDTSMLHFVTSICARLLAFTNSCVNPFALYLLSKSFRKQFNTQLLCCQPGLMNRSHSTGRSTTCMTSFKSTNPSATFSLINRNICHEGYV
# assay: Biodistribution and in vivo binding specificity in NMRI mice
# reported_conditions: lung, iv, total radioactivity, male NMRI mice, 45 pmol i.v., 1 h p.i., read-out: Lung uptake
parameter_measured: tissue uptake at 1 h (%ID/g)
Please respond with the number in %ID/g and leave the unit unwritten.

Input CC(C)C[C@H](NC(=O)C[C@H](O)[C@H](CC(C)C)NC(=O)[C@H](Cc1c[nH]cn1)NC(=O)CNC(=O)[C@@H](NC(=O)[C@H](C)NC(=O)[C@H](Cc1c[nH]c2ccccc12)NC(=O)[C@H](CCC(N)=O)NC(=O)[C@@H](Cc1ccccc1)NC(=O)COCCOCCNC(=O)CN1CCN(CC(=O)O)CCN(CC(=O)O)CC1)C(C)C)C(N)=O [[^18F]AlF-NOTA-P2-RM26] , output reported tissue uptake at 1 h. 0.3

---

# assay: Biodistribution and in vivo binding specificity in PC-3 tumor-bearing BALB/c nu/nu mice
# reported_conditions: mouse, gastrointestinal tract (whole sample), iv, total radioactivity; male BALB/c nu/nu mice with PC-3 xenografts, 45 pmol i.v., 1 h p.i.; read-out: GI tract uptake
parameter_measured: tissue uptake dose at 1 h
Answer with the figure and its unit, nothing else.

Input CC(C)C[C@H](NC(=O)C[C@H](O)[C@H](CC(C)C)NC(=O)[C@H](Cc1c[nH]cn1)NC(=O)CNC(=O)[C@@H](NC(=O)[C@H](C)NC(=O)[C@H](Cc1c[nH]c2ccccc12)NC(=O)[C@H](CCC(N)=O)NC(=O)[C@@H](Cc1ccccc1)NC(=O)COCCOCCNC(=O)CN1CCN(CC(=O)O)CCN(CC(=O)O)CC1)C(C)C)C(N)=O [[^18F]AlF-NOTA-P2-RM26] , output reported tissue uptake dose at 1 h. 6.1 %ID

---

# assay: Biodistribution and in vivo binding specificity in PC-3 tumor-bearing BALB/c nu/nu mice
# reported_conditions: male, BALB/c nu/nu, mouse, small intestine, iv, 45 pmol, total radioactivity, male BALB/c nu/nu mice with PC-3 xenografts, 45 pmol i.v., 3 h p.i.; read-out: Small intestine uptake
parameter_measured: tissue uptake at 3 h (%ID/g)
Please respond with the number in %ID/g and leave the unit unwritten.

Input CC(C)C[C@H](NC(=O)C[C@H](O)[C@H](CC(C)C)NC(=O)[C@H](Cc1c[nH]cn1)NC(=O)CNC(=O)[C@@H](NC(=O)[C@H](C)NC(=O)[C@H](Cc1c[nH]c2ccccc12)NC(=O)[C@H](CCC(N)=O)NC(=O)[C@@H](Cc1ccccc1)NC(=O)COCCOCCNC(=O)CN1CCN(CC(=O)O)CCN(CC(=O)O)CC1)C(C)C)C(N)=O [[^18F]AlF-NOTA-P2-RM26] , output reported tissue uptake at 3 h. 0.88

---

# target_under_test: murine GRPRs (Mus musculus, UniProt P21729)
# Construct: from tissue; host or cells: organs of male NMRI mice, in vivo (pancreas, stomach, small intestine and others)
# assay: Biodistribution and in vivo binding specificity in NMRI mice
# reported_conditions: lung, iv, total radioactivity, male NMRI mice, 45 pmol i.v., blocked (co-injected 20 nmol non-labeled peptide), 1 h p.i., read-out: Lung uptake
parameter_measured: tissue uptake at 1 h
Answer with the figure and its unit, nothing else.

Input CC(C)C[C@H](NC(=O)C[C@H](O)[C@H](CC(C)C)NC(=O)[C@H](Cc1c[nH]cn1)NC(=O)CNC(=O)[C@@H](NC(=O)[C@H](C)NC(=O)[C@H](Cc1c[nH]c2ccccc12)NC(=O)[C@H](CCC(N)=O)NC(=O)[C@@H](Cc1ccccc1)NC(=O)COCCOCCNC(=O)CN1CCN(CC(=O)O)CCN(CC(=O)O)CC1)C(C)C)C(N)=O [[^18F]AlF-NOTA-P2-RM26] , output reported tissue uptake at 1 h. 0.3 %ID/g
